test: CREB reporter modulators without forskolin, primary screen, cell-based, PC12, CRE-LacZ reporter, unstimulated (AID 1145); conditions: no forskolin, luminescence, 4.5 h, higher = more signal, called active from +8 up or from −8 down
experimental-endpoint: z-score

compound	assay-result
COc1cc(OC)c(C(O)C2C=CC3C(=O)N(c4ccccc4)C(=O)C3N2Nc2ccccc2)cc1Br (stereo not drawn)	0.0501
C=CCC(OC(C)=O)[C@@H]1[C@@H](N(Cc2cccc3ccccc23)C(=O)c2cccc3ccccc23)c2cc(OCCCO)ccc2N1C(=O)c1ccc(-c2ccccc2)cc1 (stereo partly drawn)	-0.113
COC(=O)c1ccc([C@H](NC(=O)c2ccco2)[C@]2(C)C[C@H]2C2CCCCC2)cc1	-0.368
C=CCNC(=O)[C@@H]1[C@H]2C(=O)O[C@H](c3ccccc3)[C@H](c3ccccc3)N2[C@H](c2ccc(O)cc2)[C@@]12C(=O)N(C(=O)OCCOC)c1ccc(C#CC3(O)CCCCCC3)cc12	-1.28
COC1OC[C@]2(C)[C@H]3C4=C(CN2C(=O)OC(C)(C)C)[C@H](C)C(CO)C(CO)C4CC[C@@H]13 (stereo partly drawn)	0.197
O=C1OCC=C[C@H]2OC34C=CCN(c5ccc(Cl)cc5)C(=O)[C@H]3N(CCO)C(=O)[C@@H]4[C@@H]12 (stereo partly drawn)	0.601
C=C[C@@H](OC)[C@H](OC(=O)Nc1ccc(SC)cc1)c1ccc(O)c(F)c1	0.847
O=C1O[C@H](c2ccccc2)[C@H](c2ccccc2)N2[C@H]1[C@@H](C(=O)Nc1nc3ccccc3s1)[C@]1(C(=O)Nc3ccc(C#CC4(O)CCCCCC4)cc31)[C@H]2c1ccccc1OCCO	0.346
COC(=O)[C@@]1(Cc2ccc(F)cc2)[C@H]2c3cc(C(=O)N4CCCC4)n(CCc4ccc(O)c(O)c4)c3C[C@H]2CN1C(=O)c1ccccc1	3.05
COc1cc2c(cc1OC)CN(C(=O)[C@@H]1[C@H]3C(=O)O[C@H](c4ccccc4)[C@H](c4ccccc4)N3[C@H](c3ccc(OCCO)cc3)[C@@]13C(=O)Nc1ccccc13)CC2	0.829
COC(=O)[C@@]1(Cc2ccc(OC)cc2)[C@H]2c3cc(C(=O)N4CCCC4)n(Cc4c(-c5ccccc5)noc4C)c3C[C@H]2CN1C(=O)c1ccccc1	-0.185
COCCOC(=O)N1C(=O)[C@@]2(c3cc(C#CCCO)ccc31)[C@H](c1ccccc1OCCO)N1[C@H](c3ccccc3)[C@H](c3ccccc3)OC(=O)[C@H]1[C@@H]2C(=O)Nc1nc2ccccc2s1	-0.467
CCCCCCc1nc(C2CC2)cc2c1[Si](C(C)C)(C(C)C)O[C@H]2c1ccccc1	0.134
CC(C)C[C@@H]1NC(=O)[C@@H]2C[C@H](C(=O)NCCCCCN)[C@H](c3ccc(O)cc3)N2C1=O	0.411
CN(C)C(=O)C1N=C(c2ccc(OCCCO)cc2)N(c2ccccc2)O1 (stereo not drawn)	0.0451
[N-]=[N+]=Nc1ccccc1C[C@]1(C(N)=O)N=C(c2ccc(OCCCO)cc2)O[C@H]1c1ccccc1N=[N+]=[N-]	1.6
COCCOC(=O)N1C(=O)[C@@]2(c3cc(C#CC4=CCCCC4)ccc31)[C@H](C(N)=O)[C@H]1C(=O)O[C@H](c3ccccc3)[C@H](c3ccccc3)N1[C@@H]2c1ccccc1OCCO	-0.333
COC(=O)CCCCCCC(=O)Nc1ccc(NC(=O)CCCC[P+](c2ccccc2)(c2ccccc2)c2ccccc2)cc1	0.575

All figures here come from PubChem BioAssay.
